# test: Selectivity index, ratio of TC50 for human HepG2(2.2.15) cells to IC50 for decrease in hepatitis B viral surface antigen HBeAg secretion in human HepG2(2.2.15) cells
Tag: TRUE if measured Selectivity Index is not below 3, FALSE if it is.

compound_structure_string	label
COc1ccc(C(C)=O)c(OS(=O)(=O)c2ccc(Br)cc2)c1	TRUE
COc1ccc(S(=O)(=O)Oc2cc(OC)ccc2C(C)=O)cc1	TRUE
COc1ccc(C(C)=O)c(OS(=O)(=O)c2ccc([N+](=O)[O-])cc2)c1	FALSE
COc1ccc(C(C)=O)c(OS(=O)(=O)c2ccc(N)cc2)c1	FALSE
COc1ccc(C(C)=O)c(OS(=O)(=O)c2ccc(C)cc2)c1	TRUE
COc1ccc(C(C)=O)c(OS(=O)(=O)c2ccc(Cl)cc2)c1	TRUE
COc1ccc(C(C)=O)c(OS(=O)(=O)c2ccc(F)cc2)c1	TRUE
COc1ccc(C(C)=O)c(OS(=O)(=O)c2ccccc2)c1	TRUE
